Target: UniProtKB P34972
Assay: Membrane competition binding assay with [3H]-CP 55,940, CHO-CB2 membranes
Conditions: CHO-CB2 cellular membranes, 2.5 nM [3H]-CP 55,940
Measured metric: pKi
Note: pKi values are expressed as the negative base-10 logarithm of concentration in M.

Suppose we examine the compound CCCCCc1cc(OC)c(C2C(O)[C@]3(C)CC[C@H]2C3(C)C)c(OC)c1 (stereo partly drawn) [HU-938] ; what pKi value has been reported? 5.10

Quick one: CCCCCCC(C)(C)c1cc(OC)c(C2=C[C@H]3CC[C@]2(C(=O)OC)C3(C)C)c(OC)c1 [HU-912] 7.11

Please give the result for CCCCCCC(C)(C)c1cc(OC)c(C2=C[C@@H]3CC[C@@]2(C(=O)OC)C3(C)C)c(OC)c1 [HU-911] too. 7.07

Also need CCCCCCC(C)(C)c1cc(OC)c(C2=C[C@H]3CC[C@]2(C)C3(C)C)c(OC)c1 [HU-907] , thanks. 5.60

Try this compound next: CCCCCc1cc(OC)c(C2C(=O)[C@]3(C)CC[C@H]2C3(C)C)c(OC)c1 (stereo partly drawn) [HU-936] 5.76

// same read-out, input: CCCCCCC(C)(C)c1cc(OC)c(C2C(=O)[C@]3(C)CC[C@H]2C3(C)C)c(OC)c1 (stereo partly drawn) [HU-926] 6.97
